Tested on: Calf thymus DNA
run description: Thermal denaturation in sonicated calf thymus DNA (CT DNA)
Assay type: nucleic-acid assay
conditions used: Bos taurus
Exercise: for every item that follows, state its recorded Tm.
Numbers only, in °C.

Answered cases to consult:
> print(dat)
                            substance.smiles  quantity.measured  observed.value
 1  Nc1ccc2nc(CCc3nc4ccc(N)cc4[nH]3)[nH]c2c1                 Tm             1.6
 2  CC[n+]1c(-c2ccccc2)c2cc(N)ccc2c2ccc(N)cc21                 Tm            12.4
 3  N=C(N)c1ccc2[nH]c(/C=C/c3nc4cc(C(=N)N)ccc4[nH]3)nc2c1                 Tm            21.8
 4  c1cc2[nH]c(CCc3nc4cc(C5=NCCCN5)ccc4[nH]3)nc2cc1C1=NCCCN1                 Tm            19.7
 5  CN1CCN(c2ccc3[nH]c(-c4ccc5[nH]c(-c6ccc(O)cc6)nc5c4)nc3c2)CC1                 Tm            14.1
 6  N=C(N)c1ccc2[nH]c(-c3cccc(-c4nc5cc(C(=N)N)ccc5[nH]4)c3)nc2c1                 Tm            12.8
 7  N=C(N)c1ccc2nc(Cc3nc4ccc(C(=N)N)cc4[nH]3)[nH]c2c1                 Tm             7.6
 8  CC(C)NC(=N)c1ccc2[nH]c(/C=C/c3nc4cc(C(=N)NC(C)C)ccc4[nH]3)nc2c1                 Tm            22.8
 9  N=C(N)c1ccc2[nH]c(CCCCCc3nc4cc(C(=N)N)ccc4[nH]3)nc2c1                 Tm            10.1
10  c1cc2[nH]c(CCc3nc4cc(N5CCOCC5)ccc4[nH]3)nc2cc1N1CCOCC1                 Tm             0.6

Dear colleague, could you send me Tm for each of the items below? Thanks.
1. N=C(N)c1ccc2[nH]c(Cc3nc4ccccc4[nH]3)nc2c1
2. N=C(N)c1ccc2[nH]c(CCCCCCc3nc4cc(C(=N)N)ccc4[nH]3)nc2c1
3. C1=NCCCN1Cc1ccc2[nH]c(CCc3nc4cc(CN5C=NCCC5)ccc4[nH]3)nc2c1
4. N=C(N)c1ccc2[nH]c(-c3ccc(-c4nc5cc(C(=N)N)ccc5[nH]4)cc3)nc2c1
5. O=[N+]([O-])c1ccc2[nH]c(CCc3nc4cc([N+](=O)[O-])ccc4[nH]3)nc2c1
6. N=C(N)c1ccc(-c2cc3ccc(C(=N)N)cc3[nH]2)cc1

Resp:
1. 1.4
2. 13.5
3. 13.3
4. 13.3
5. 1.5
6. 21.5

Data provenance is ChEMBL document CHEMBL1126714.
